The origin of these recorded values is ChEMBL document CHEMBL4219206.

Reported IC50 by item:
Tested on: HepG2
Test: cells
Setup Conditions: Homo sapiens, HepG2, light or radiation study
Description: Phototoxicity against human HepG2 cells assessed as reduction in cell viability pretreated for 2 hrs followed by 8 Gy gamma irradiation for 17.73 mins measured after 48 hrs by MTT assay
Property Name: IC50

> print(dat)
                         structure.notation  property.name  result
1  CCOC(=O)N/C=C/C(=O)c1ccc(NC(=S)Nc2ccc(S(=O)(=O)Nc3ccccn3)cc2)cc1           IC50   70 nM
2  O=C(/C=C/Nc1ccccc1Cl)c1ccc(NC(=S)Nc2ccc(S(=O)(=O)Nc3ccccn3)cc2)cc1           IC50  250 nM
3  CCOC(=O)c1ccc(N/C=C/C(=O)c2ccc(NC(=S)Nc3ccc(S(=O)(=O)Nc4ccccn4)cc3)cc2)cc1           IC50  390 nM
4  Cc1ccc(C(=O)O)c(N/C=C/C(=O)c2ccc(NC(=S)Nc3ccc(S(=O)(=O)Nc4ccccn4)cc3)cc2)c1           IC50  300 nM
5  O=C(/C=C/Nc1ccc(F)cc1)c1ccc(NC(=S)Nc2ccc(S(=O)(=O)Nc3ccccn3)cc2)cc1           IC50  230 nM
6  COC(=O)/C=C(/C)N/C=C/C(=O)c1ccc(NC(=S)Nc2ccc(S(=O)(=O)Nc3ccccn3)cc2)cc1           IC50  160 nM
